target: human STING protein (140-379) (Homo sapiens, UniProt Q86WV6, H232R); construct: 6XHIS-SUMO-hSTING (140-379); test: Radiometric filtration binding competition assay (WT_FBA_HIS-SUMO-hSWAT); conditions: read-out: WT-hSWAT IC50
Sequence (Q86WV6 140-379 H232R): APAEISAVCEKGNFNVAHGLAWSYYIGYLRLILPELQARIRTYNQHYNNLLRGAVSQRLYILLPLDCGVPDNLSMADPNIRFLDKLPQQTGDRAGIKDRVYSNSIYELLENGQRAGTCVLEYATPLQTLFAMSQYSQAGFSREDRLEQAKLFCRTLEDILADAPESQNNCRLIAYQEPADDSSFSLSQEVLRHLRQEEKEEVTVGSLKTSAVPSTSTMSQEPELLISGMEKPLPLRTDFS
readout: IC50

Input line: Need IC50 of CSc1c(Cl)ccc2c(=O)c3ccc(C(C)=O)nc3n(CC(=O)O)c12 , thanks.
Output line: 100 to 300 µM

Input line: Need IC50 of CSc1c(Cl)ccc2c(=O)c3ccc(N(C)CCS(C)(=O)=O)nc3n(CC(=O)O)c12 , thanks.
Output line: 20 to 100 µM

Input line: Need IC50 of CCN(CCOC)c1nc2c(cc1Cl)c(=O)c1ccc(Cl)c(SC)c1n2CC(=O)O , thanks.
Output line: 20 to 100 µM

Input line: Need IC50 of CCOc1c(Cl)ccc2c(=O)c3ccc(NCC4CCOCC4)nc3n(CC(=O)O)c12 , thanks.
Output line: 20 to 100 µM

Input line: Need IC50 of CCOc1c(Cl)ccc2c(=O)c3ccc(N(CCOC)C4CC4)nc3n(CC(=O)O)c12 , thanks.
Output line: 20 to 100 µM

Input line: Need IC50 of CSc1c(Cl)ccc2c(=O)c3ccc(C(C)(C)C)nc3n(CC(=O)O)c12 , thanks.
Output line: < 20 µM

Input line: Need IC50 of CO[C@H]1C[C@@H](N(CC2CC2)c2ccc3c(=O)c4ccc(Cl)c(SC)c4n(CC(=O)O)c3n2)C1 , thanks.
Output line: < 20 µM

Input line: Need IC50 of CCOc1c(Cl)ccc2c(=O)c3ccc(N(C)CC4CCOCC4)nc3n(CC(=O)O)c12 , thanks.
Output line: 20 to 100 µM

Input line: Need IC50 of CC(C)c1ccc2c(=O)c3ccc(Cl)c(N(C)C)c3n(CC(=O)O)c2n1 , thanks.
Output line: < 20 µM

Input line: Need IC50 of CSc1c(Cl)ccc2c(=O)c3ccc(N(C)C4CC(C#N)C4)nc3n(CC(=O)O)c12 (stereo not drawn) , thanks.
Output line: 20 to 100 µM

Input line: Need IC50 of CSc1c(Cl)ccc2c(=O)c3ccc(N(CC4CC4)C4CC(F)(F)C4)nc3n(CC(=O)O)c12 , thanks.
Output line: 20 to 100 µM

Input line: Need IC50 of CSc1c(Cl)ccc2c(=O)c3ccc(C=C4COC4)nc3n(CC(=O)O)c12 , thanks.
Output line: 20 to 100 µM

Input line: Need IC50 of CCOc1c(Cl)ccc2c(=O)c3ccc(N(C)C)nc3n(CC(=O)O)c12 , thanks.
Output line: 100 to 300 µM

Input line: Need IC50 of CO[C@H]1C[C@@H](N(C)c2ccc3c(=O)c4ccc(C)c(SC)c4n(CC(=O)O)c3n2)C1 , thanks.
Output line: < 20 µM

Input line: Need IC50 of CSc1c(Cl)ccc2c(=O)c3ccc(N(C)CC4CCOCC4)nc3n(CC(=O)O)c12 , thanks.
Output line: 20 to 100 µM

Input line: Need IC50 of CCN(c1ccc2c(=O)c3ccc(Cl)c(SC)c3n(CC(=O)O)c2n1)C1COC1 , thanks.
Output line: < 20 µM

Input line: Need IC50 of CSc1c(Cl)ccc2c(=O)c3ccc(NCC4CC(F)(F)C4)nc3n(CC(=O)O)c12 , thanks.
Output line: 20 to 100 µM

Input line: Need IC50 of Cc1nccn1CCN(C)c1ccc2c(=O)c3ccc(Cl)c(N(C)C)c3n(CC(=O)O)c2n1 , thanks.
Output line: 100 to 300 µM

Input line: Need IC50 of CSc1ccc2c(=O)c3ccc(C(C)(C)C)nc3n(CC(=O)O)c2c1SC , thanks.
Output line: > 300 µM

Input line: Need IC50 of CSc1c(Cl)ccc2c(=O)c3ccc(C(C)(C)C#N)nc3n(CC(=O)O)c12 , thanks.
Output line: 20 to 100 µM

Input line: Need IC50 of COCCN(c1ccc2c(=O)c3ccc(Cl)c(SC)c3n(CC(=O)O)c2n1)C1CC1 , thanks.
Output line: < 20 µM

Input line: Need IC50 of CCOc1c(Cl)ccc2c(=O)c3ccc(C(C)(C)C#N)nc3n(CC(=O)O)c12 , thanks.
Output line: 20 to 100 µM

Input line: Need IC50 of CSc1c(Cl)ccc2c(=O)c3ccc(Nc4ccccc4F)nc3n(CC(=O)O)c12 , thanks.
Output line: < 20 µM

Input line: Need IC50 of Cc1ccc2c(=O)c3ccc(C(C)(C)C#N)nc3n(CC(=O)O)c2c1N(C)C , thanks.
Output line: 20 to 100 µM

Input line: Need IC50 of CC(C)(C)c1ccc2c(=O)c3ccc(Cl)c(F)c3n(CC(=O)O)c2n1 , thanks.
Output line: > 300 µM

Input line: Need IC50 of CSc1c(Cl)ccc2c(=O)c3ccc(N(C)C4CC(F)(F)C4)nc3n(CC(=O)O)c12 , thanks.
Output line: 20 to 100 µM

Input line: Need IC50 of CN(C)c1c(Cl)ccc2c(=O)c3ccc(C(C)(C)C(N)=O)nc3n(CC(=O)O)c12 , thanks.
Output line: 100 to 300 µM

Input line: Need IC50 of CO[C@H]1C[C@H](N(C)c2ccc3c(=O)c4ccc(C)c(N(C)C)c4n(CC(=O)O)c3n2)C1 , thanks.
Output line: 100 to 300 µM

Input line: Need IC50 of COCCN(C)c1nc2c(cc1Cl)c(=O)c1ccc(Cl)c(SC)c1n2CC(=O)O , thanks.
Output line: 20 to 100 µM

Input line: Need IC50 of C=Cc1c(Cl)ccc2c(=O)c3ccc(N(C)C)nc3n(CC(=O)O)c12 , thanks.
Output line: 20 to 100 µM

Input line: Need IC50 of COCCN(CC(F)(F)F)c1ccc2c(=O)c3ccc(Cl)c(SC)c3n(CC(=O)O)c2n1 , thanks.
Output line: 20 to 100 µM

Input line: Need IC50 of COCCN(CC(F)F)c1ccc2c(=O)c3ccc(Cl)c(SC)c3n(CC(=O)O)c2n1 , thanks.
Output line: 20 to 100 µM

Input line: Need IC50 of CSc1c(Cl)ccc2c(=O)c3ccc(N(C)CCn4ccnc4C)nc3n(CC(=O)O)c12 , thanks.
Output line: 20 to 100 µM
